Biological target: hTLR8 (Homo sapiens)
Construct: host or cells: HEK293 cells stably transfected with hTLR8
Sequence (Q9NR97 27-1041): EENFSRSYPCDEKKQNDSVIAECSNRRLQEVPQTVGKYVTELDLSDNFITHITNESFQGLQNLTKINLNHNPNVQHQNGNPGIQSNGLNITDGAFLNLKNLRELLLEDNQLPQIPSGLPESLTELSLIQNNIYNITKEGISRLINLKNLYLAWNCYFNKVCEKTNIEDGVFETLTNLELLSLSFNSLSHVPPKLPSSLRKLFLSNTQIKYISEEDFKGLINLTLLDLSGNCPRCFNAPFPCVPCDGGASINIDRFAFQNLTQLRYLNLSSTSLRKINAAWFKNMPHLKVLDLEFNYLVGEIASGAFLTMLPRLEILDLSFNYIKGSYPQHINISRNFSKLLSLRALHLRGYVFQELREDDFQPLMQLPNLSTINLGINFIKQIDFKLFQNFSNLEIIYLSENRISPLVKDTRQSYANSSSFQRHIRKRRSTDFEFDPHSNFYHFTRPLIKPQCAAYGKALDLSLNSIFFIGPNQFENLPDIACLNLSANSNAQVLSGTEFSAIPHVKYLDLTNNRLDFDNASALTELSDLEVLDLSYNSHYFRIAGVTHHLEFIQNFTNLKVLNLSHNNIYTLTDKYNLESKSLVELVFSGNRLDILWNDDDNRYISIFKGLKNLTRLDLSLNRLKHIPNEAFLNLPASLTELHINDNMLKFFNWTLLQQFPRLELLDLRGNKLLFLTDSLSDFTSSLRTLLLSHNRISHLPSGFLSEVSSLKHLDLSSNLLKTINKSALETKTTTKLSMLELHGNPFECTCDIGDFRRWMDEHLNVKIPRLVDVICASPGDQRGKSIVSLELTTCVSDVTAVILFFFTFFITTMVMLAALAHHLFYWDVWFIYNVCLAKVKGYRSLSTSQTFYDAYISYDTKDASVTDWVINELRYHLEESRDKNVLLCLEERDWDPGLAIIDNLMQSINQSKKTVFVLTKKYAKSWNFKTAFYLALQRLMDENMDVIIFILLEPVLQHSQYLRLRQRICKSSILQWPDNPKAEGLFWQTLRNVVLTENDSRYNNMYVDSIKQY
Experiment: HEK-293 hTLR8 transfectant NF-κB SEAP reporter antagonist assay
Assay type: cell-based
Conditions: HEK293, TLR8 antagonist activity at 25 μM (in some cases assessed at lower concentrations)
Please provide measured inhibition at 25 µM for the entries that follow.

Query string: // fetch inhibition at 25 µM given entry CCOC(=O)C1=Cc2cc(OC)c(-c3ccc(C(=O)N4CCCC4)cc3)cc2N=C(N)C1
Result string: 80 to 99%

Query string: Answer with the recorded inhibition at 25 µM of CCCN(CCC)C(=O)C1=Cc2cc(OC)c(-c3ccc(C(=O)N4CCCC4)cc3)cc2N=C(N)C1 only.
Result string: 60 to 79%

Query string: Tell me inhibition at 25 µM reported for CCOC(=O)C1=Cc2cc(OCc3ccccn3)ccc2N=C(N)C1
Result string: 60 to 79%

Query string: Give the reported value of inhibition at 25 µM for this record: CCCN(CCCO)C(=O)C1=Cc2ccc(-c3ccc(C(=O)N4CCCC4)cc3)cc2N=C(NCCN(C)C)C1
Result string: 20 to 39%

Query string: Hello, please tell me recorded inhibition at 25 µM for this one: CCCN(CCC)C(=O)C1=Cc2ccc(-c3ccc(C(=O)N4CCCC4)cc3)cc2N=C(NN)C1
Result string: 80 to 99%

Query string: Note down inhibition at 25 µM recorded for CCCN(CCCO)C(=O)C1=Cc2ccc(-c3ccc(C(=O)N4CCCC4)cc3)cc2N=C(NC)C1
Result string: 40 to 59%

Query string: Entry CCOC(=O)C1=Cc2cc(-c3ccc(C(=O)N4CCCC4)cc3)ccc2N=C(N)C1 needs its inhibition at 25 µM filled in; supply it.
Result string: 80 to 99%

Query string: Report measured inhibition at 25 µM; entry is CCCN(CCCO)C(=O)C1=Cc2cc(OC)c(-c3ccc(C(=O)N4CCCC4)cc3)cc2N=C(N)C1
Result string: 20 to 39%

Query string: Identify inhibition at 25 µM associated with the compound CCOC(=O)C1=Cc2ccc(-c3ccc(C(=O)N4CCCC4)cc3)cc2N2CCN=C2C1
Result string: 60 to 79%

Query string: Answer with the recorded inhibition at 25 µM for the compound listed here: CCOC(=O)N1Cc2ccc(-c3ccc(C(=O)N4CCCC4)cc3)cc2N=C(N)C12CC2
Result string: 20 to 39%

Query string: Output inhibition at 25 µM of CCCN(CCC)C(=O)C1=Cc2cc(OC)ccc2N=C(N)C1
Result string: 40 to 59%
